Target: DNA dC->dU-editing enzyme APOBEC-3G (Homo sapiens)
Test: qHTS for inhibitors of Vif-A3G interactions: Cherry picks counterscreen;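 note: hits raise yellow fluorescence by blocking Vif-driven A3G-eYFP degradation; nearly all actives have a fitted effect of over 70% in size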;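 for max response: max response given as percent of control signal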
Conditions: HeLa A3G-eYFP + Vif, eYFP fluorescence, 24 h
From the text: The recent discovery and characterization of host restriction factors, which provide a potent defense to invading retroviruses, has provided new targets for antiviral drug development. […] In the presence of an inhibitor, it is expected that Vif will be unable to degrade A3G-eYFP and/or A3F-eYFP, resulting in an increase in yellow fluorescence. […]
Hit rate of the full screen: of about 2,100 compounds, about 1,100 (52%) were called active. Inconclusive results (about 27%) are left out. So high a share suggests a set chosen from earlier hits. The list shows a part of the results.
Reported values of max response for individual entries
// units = %; emit number, no label

Worked cases, answers included:
* O=C(Nc1cc(Cl)cc2c1-c1ccc(Cl)cc1C2O)C(Cl)Cl (configuration not stated) | -14.6
* CN(C)c1ccc2nc3c(=O)[nH]c(=O)nc-3n(CC(O)C(O)C(O)CO)c2c1 (configuration not stated) | 0.486
* CN1C2=CC=CC=CC2=[N+](C)C12C([N+](=O)[O-])=CC(=[N+]([O-])[O-])C=C2[N+](=O)[O-] (configuration not stated) | -21

-- ask Please report the measured max response for CNCC(O)Cn1c2c(c3ccccc31)CCCC2 (configuration not stated)
-- reply 20.6

-- ask State its max response: `CSc1cccc(NC(=O)c2cc3c(COC(C)=O)cnc(C)c3oc2=O)c1`
-- reply 2.84

-- ask Item `CCCCN1C(=O)/C(=C/C=C2/CC(C)(C)CN2C)SC1=S` : provide max response
-- reply 54.7

-- ask For the molecule `Cc1ccc(Cn2c(SCc3ccc(C(=O)NC4CCCC4)cc3)nc3ccncc32)cc1` , give its measured max response value.
-- reply -1.29

-- ask Please report the measured max response for ClCC1NCC(c2ccccc2Cl)c2c1[nH]c1ccccc21 (configuration not stated)
-- reply -28

-- ask Dear colleague, please send me the reported max response for `C=CCNC(=S)N/N=C/c1ccc(C)cc1C` when you can.
-- reply -13.8

-- ask Identify measured max response corresponding to `Cc1cc(C)cc(NC(=S)NC(=O)C2CC2)c1`
-- reply -14.6

-- ask Identify measured max response associated with `c1ccc2[nH]c(NN=C3CCCCCC3)nc2c1`
-- reply 0.674

-- ask Indicate the recorded max response value for this molecule: `CCOc1cc(N(CC)CC)ccc1/C=C(/C#N)c1nc2ccccc2[nH]1`
-- reply 57.6

-- ask Give the value of max response reported for the following: `c1ccc(N=NC2=NN(c3ccccc3)CS2)cc1`
-- reply 20.9

-- ask Quote max response reported for `CCCCN1C(=O)/C(=C/C=C2\Oc3ccccc3N2CC)SC1=S` please.
-- reply 51.7

-- ask For the molecule `O=C(OCCC12CC3CC(CC(C3)C1)C2)c1ccc(NCc2cc(O)ccc2O)cc1` , give its reported max response.
-- reply 25.7

====

Each entry below carries its reported Potency.
target: DNA dC->dU-editing enzyme APOBEC-3G (Homo sapiens); test: qHTS for inhibitors of Vif-A3G interactions: Cherry picks counterscreen; conditions: HeLa A3G-eYFP + Vif (tagged APOBEC3G with the HIV-1 protein that degrades it), eYFP fluorescence, 24 h;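 note: hits raise yellow fluorescence by blocking Vif-driven A3G-eYFP degradation; nearly all actives have a fitted effect of over 70% in size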; note: potency is the fitted concentration of half-maximal effect
About 1,100 (52%) of roughly 2,100 compounds were called active. Inconclusive results (about 27%) are left out. The set was probably picked from earlier hits. Some of the results follow.

- Nc1nn(-c2ccccc2)c(N)c1N=Nc1ccccc1: 8.86 µM (active)
- N#CC1=C2SCC(O)(c3ccccc3)N2C(=O)CC1c1ccccc1 (stereo unspecified): 5.59 µM (active)

-- ask State, in one line, measured Potency of `Cc1cc(NC(=O)CSc2nc(-c3cccs3)nc3ccccc23)no1`
-- reply 3.53 µM (active)

-- ask Answer with the recorded Potency for the molecule listed here: `CCOC(=O)c1ccc(/C=C2/C=C(c3ccccc3)N(c3ccc(Cl)c(C(=O)O)c3)C2=O)cc1`
-- reply 20.6 µM (active)

-- ask Identify Potency associated with the molecule `COc1ccc(NC(=S)NN(C)C(=S)Nc2ccc(OC)cc2)cc1`
-- reply 6.27 µM (active)

-- ask Output Potency of `Cc1cc(N2CCCC2)ccc1/C=C1\NC(=S)N(C)C1=O`
-- reply 1.64 µM (active)
